Molecular target: GLUT1 (Homo sapiens, UniProt P11166)
Sequence (P11166 whole entry, species assumed): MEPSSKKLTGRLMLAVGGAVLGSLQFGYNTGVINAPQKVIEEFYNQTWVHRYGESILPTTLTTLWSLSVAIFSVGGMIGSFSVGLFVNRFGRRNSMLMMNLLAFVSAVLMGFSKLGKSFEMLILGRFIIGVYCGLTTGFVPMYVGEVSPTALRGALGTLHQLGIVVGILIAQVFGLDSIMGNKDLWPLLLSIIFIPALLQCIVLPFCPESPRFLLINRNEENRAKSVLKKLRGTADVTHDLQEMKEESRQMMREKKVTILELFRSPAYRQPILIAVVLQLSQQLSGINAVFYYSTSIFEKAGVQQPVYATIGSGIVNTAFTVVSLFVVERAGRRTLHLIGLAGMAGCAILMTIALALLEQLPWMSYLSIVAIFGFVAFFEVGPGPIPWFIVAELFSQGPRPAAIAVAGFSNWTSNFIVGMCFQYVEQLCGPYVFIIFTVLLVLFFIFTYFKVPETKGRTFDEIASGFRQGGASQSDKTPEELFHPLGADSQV
Assay: Indirect measurement of GLUT1 activity by quantification of intracellular ATP levels (glucose induced ATP increase)
Assay type: cell-based
Set-up: endogenous in cells; host or cells: DLD1 or CHO-K1
Settings: read-out: IC50 regarding glucose induced ATP increase (GLUT1 inhibition)
Exercise: for every item that follows, state its recorded log10 of IC50.
Please note: log10 values; quantity IC50; unit nM.

Recorded log10 of IC50, per entry:
INSERT INTO measurements (compound, readout_name, number) VALUES
  ('Cc1c(NC(=O)c2cc(C(N)=O)nc3cc(F)ccc23)c(C(F)(F)F)nn1Cc1cc(C2CC2)on1 [Example 1550]', 'log10 of IC50', 1.54),
  ('Cc1nn(Cc2ccc(C(=O)NC[C@@H](C)O)cc2)c(C)c1NC(=O)c1cc(C(F)(F)F)nc2ccc(Br)cc12 [Example 1019]', 'log10 of IC50', 0.28),
  ('Cc1cc(Cn2nc(C)c(NC(=O)c3cc(C(N)=O)nc4cc(F)ccc34)c2C)no1 [Example 1541]', 'log10 of IC50', 1.19),
  ('Cc1nn(Cc2ccc(F)cc2)c(C)c1NC(=O)c1cc(C(F)(F)F)nc2cc(F)c(Cl)cc12 [Example 121]', 'log10 of IC50', 0.23),
  ('Cc1nn(Cc2ccc(C(=O)N(C)CCN(C)C)cc2)c(C)c1NC(=O)c1cc(C(F)(F)F)nc2ccc(Br)cc12 [Example 1224]', 'log10 of IC50', 2.96);

Please state log10 of IC50 for every compound in the list that follows.
1. Cc1c(NC(=O)c2cc(C(F)(F)F)nc3ccc(Br)cc23)c(C(F)(F)F)nn1Cc1ccc(C(=O)NCCO)cn1 [Example 1065]
2. Cc1c(NC(=O)c2cc(C(N)=O)nc3cc(F)ccc23)c(C(F)(F)F)nn1Cc1ccc(C(=O)O)cc1 [Example 368]

## Result
[1.27, 2.62]

Please state log10 of IC50 for every compound in the list that follows.
1. Cc1nn(CCN2CCCCC2)c(C)c1NC(=O)c1cc(C(F)(F)F)nc2ccc(Br)cc12 [Example 1220]
2. Cc1nn(Cc2ccc(C#N)cc2)c(C)c1NC(=O)c1cc(C(N)=O)nc2ccc(Cl)cc12 [Example 261]
3. Cc1c(NC(=O)c2cc(C(N)=O)nc3ccccc23)c(C(F)(F)F)nn1Cc1c(F)cccc1F [Example 1628]

## Result
1. 2.86
2. -0.30
3. 1.18

Please state log10 of IC50 for every compound in the list that follows.
1. Cc1c(NC(=O)c2cc(C(N)=O)nc3cccc(F)c23)c(C(F)(F)F)nn1Cc1ccc(C#N)cn1 [Example 363]
2. Cc1c(NC(=O)c2cc(C(N)=O)nc3ccccc23)c(C(=O)N(C)C)nn1Cc1ccc(F)cc1 [Example 1214]
3. Cc1c(NC(=O)c2cc(C(F)(F)F)nc3ccc(Br)cc23)c(C(F)(F)F)nn1CCc1ccc(F)cc1 [Example 1373]
4. COCCNc1ccc2nc(C(N)=O)cc(C(=O)Nc3c(C(F)(F)F)nn(Cc4ccc(C#N)cc4)c3C)c2c1 [Example 344]
5. Cc1c(NC(=O)c2cc(C(N)=O)nc3c(Cl)cccc23)c(C(F)(F)F)nn1Cc1ccc(C#N)cc1 [Example 338]
6. Cc1nn(Cc2ccc(C(=O)NCC(C)(C)O)cc2)c(C)c1NC(=O)c1cc(C(F)(F)F)nc2ccc(Br)cc12 [Example 1085]
7. Cc1nn(Cc2cccc(C#N)n2)c(C)c1NC(=O)c1cc(C(N)=O)nc2ccccc12 [Example 1708]
8. Cc1nn(Cc2ccc(F)cc2)c(C)c1NC(=O)c1cc(C#N)nc2ccccc12 [Example 78]

## Result
0.78
2.79
3.30
0.76
0.43
1.49
2.17
2.35

Please state log10 of IC50 for every compound in the list that follows.
1. Cc1nn(CC2CCN(S(=O)(=O)CCCC#N)CC2)c(C)c1NC(=O)c1cc(C(N)=O)nc2ccccc12 [Example 1512]
2. CCOC(=O)c1cc(Cn2nc(C(F)(F)F)c(NC(=O)c3cc(C(N)=O)nc4cc(F)ccc34)c2C)on1 [Example 1677]
3. Cc1ccc(CCNC(=O)c2ccc(Cn3nc(C)c(NC(=O)c4cc(C(F)(F)F)nc5ccc(Br)cc45)c3C)cc2)cc1 [Example 1210]
4. Cc1nn(Cc2ccc(F)cc2)c(C)c1NC(=O)c1cc(C(F)(F)F)nc2cccc(F)c12 [Example 26]
5. Cc1c(NC(=O)c2cc(C(N)=O)nc3cc(F)ccc23)c(C(F)(F)F)nn1Cc1csc(C#N)n1 [Example 1674]
6. Cc1nn(Cc2nc(C3CC3)no2)c(C)c1NC(=O)c1cc(C(N)=O)nc2ccccc12 [Example 1501]

## Result
[2.02, 2.55, 2.76, 1.20, 1.32, 1.87]

====

Target: GLUT1 (Homo sapiens)
Assay: Indirect measurement of GLUT1 activity by quantification of intracellular ATP levels (glucose induced ATP increase)
Type: cell-based
Set-up: endogenous in cells; host or cells: DLD1 or CHO-K1
Details: read-out: IC50 regarding glucose induced ATP increase (GLUT1 inhibition)
Exercise: for every item that follows, state its recorded IC50.
Give bare numbers, in nM.

Recorded IC50, per entry:
INSERT INTO measurements (compound, subject_of_test, readout_name, result_unit, number) VALUES
  ('Cc1c(NC(=O)c2cc(C(N)=O)nc3cc(F)c(Cl)cc23)c(C(F)(F)F)nn1Cc1ccccc1C#N [Example 270]', 'GLUT1 (Homo sapiens)', 'IC50', 'nM', 1.8),
  ('Cc1nn(Cc2ccc(C(=O)N(C)CCO)cc2)c(C)c1NC(=O)c1cc(C(F)(F)F)nc2ccc(Br)cc12 [Example 1186]', 'GLUT1 (Homo sapiens)', 'IC50', 'nM', 277),
  ('Cc1c(NC(=O)c2cc(C(N)=O)nc3ccc(N4CCCCC4)cc23)c(C(F)(F)F)nn1Cc1ccc(C#N)cc1 [Example 345]', 'GLUT1 (Homo sapiens)', 'IC50', 'nM', 7.2),
  ('Cc1c(NC(=O)c2cc(C(N)=O)nc3ccccc23)c(C(F)(F)F)nn1Cc1cc(C(C)C)no1 [Example 1552]', 'GLUT1 (Homo sapiens)', 'IC50', 'nM', 194),
  ('Cc1c(NC(=O)c2cc(C(N)=O)nc3cccc(F)c23)c(C(F)(F)F)nn1Cc1cc(F)ccc1C#N [Example 1654]', 'GLUT1 (Homo sapiens)', 'IC50', 'nM', 221),
  ('Cc1nn(Cc2ccc(C(=O)NCCN3CC4(CCS4(=O)=O)C3)cc2)c(C)c1NC(=O)c1cc(C(F)(F)F)nc2ccc(Br)cc12 [Example 1049]', 'GLUT1 (Homo sapiens)', 'IC50', 'nM', 11.7),
  ('CCc1nn(Cc2ccc(F)cc2)c(CC)c1NC(=O)c1cc(C(F)(F)F)nc2ccc(Br)cc12 [Example 1388]', 'GLUT1 (Homo sapiens)', 'IC50', 'nM', 1530),
  ('Cc1nn(Cc2ccc(C(=O)N(C)CCC3(O)CCCC3)cc2)c(C)c1NC(=O)c1cc(C(F)(F)F)nc2ccc(Br)cc12 [Example 1146]', 'GLUT1 (Homo sapiens)', 'IC50', 'nM', 117),
  ('COc1cccc(Cn2nc(C)c(NC(=O)c3cc(C(F)(F)F)nc4ccc(Br)cc34)c2C)c1 [Example 97]', 'GLUT1 (Homo sapiens)', 'IC50', 'nM', 354),
  ('Cc1nn(CC2CCN(S(C)(=O)=O)CC2)c(C)c1NC(=O)c1cc(C(F)(F)F)nc2ccc(Br)cc12 [Example 1072]', 'GLUT1 (Homo sapiens)', 'IC50', 'nM', 21);

Please state IC50 for every compound in the list that follows.
1. Cc1nn(Cc2ccncc2)c(C)c1NC(=O)c1cc(C(F)(F)F)nc2ccc(Br)cc12 [Example 160]
2. Cc1nn(Cc2ccc(F)cc2)c(C)c1NC(=O)c1cc(C(F)(F)F)nc2c(Br)cccc12 [Example 18]
3. Cc1nn(Cc2ncco2)c(C)c1NC(=O)c1cc(C(N)=O)nc2ccccc12 [Example 1504]

## Result
1. 14.3
2. 12.4
3. 42.4

Please state IC50 for every compound in the list that follows.
1. Cc1nn(Cc2ccc(C(=O)NC[C@@H]3CCCO3)cc2)c(C)c1NC(=O)c1cc(C(F)(F)F)nc2ccc(Br)cc12 [Example 1164]
2. COc1ccc2nc(C3CC3)cc(C(=O)Nc3c(C)nn(Cc4ccc(F)cc4)c3C)c2c1 [Example 233]

## Result
1: 167; 2: 7.2

====

Biological target: GLUT1 (Homo sapiens, UniProt P11166)
Assay: Indirect measurement of GLUT1 activity by quantification of intracellular ATP levels (glucose induced ATP increase)
Type: cell-based
Set-up: endogenous in cells; host or cells: DLD1 or CHO-K1
Conditions: read-out: IC50 regarding glucose induced ATP increase (GLUT1 inhibition)
pIC50: −log10 of the molar value.
Assign class by pIC50: not lower than 7 means Fulfilled; lower than 7 means Not fulfilled.

These recorded examples may help you get a feel for the data.
INSERT INTO measurements (compound_structure, group) VALUES
  ('Cc1nn(Cc2cccc(C#N)c2)c(C)c1NC(=O)c1cc(C(N)=O)nc2cccc(F)c12', 'Fulfilled'),
  ('Cc1c(NC(=O)c2cc(C(N)=O)nc3cc(F)c(Cl)cc23)c(C(F)(F)F)nn1Cc1ccc(F)cc1F', 'Fulfilled'),
  ('Cc1ccc2nc(C)cc(C(=O)Nc3c(C)nn(Cc4cc(F)ccc4F)c3C)c2c1', 'Not fulfilled'),
  ('Cc1nn(Cc2ccc(C(=O)NC(C)(C)C)cc2)c(C)c1NC(=O)c1cc(C(F)(F)F)nc2ccc(Br)cc12', 'Not fulfilled');

# ---- query molecule ----
## Task Could you tell me if the measured pIC50 of `Cc1nn(Cc2ccc(S(C)(=O)=O)cc2)c(C)c1NC(=O)c1cc(C(N)=O)nc2cc(F)c(Cl)cc12` reaches 7 or more?
## Result Fulfilled

This collection of values is drawn from patent US20170037028A1.
